- tested-target: T1, human CD3 E&D complex protein (Sino Biological Inc., CT026H0323H) (human, UniProt P07766 23-126; P04234 22-105)
- T1 construct: bought heterodimer; also called human CD3 protein (CT026H0323H)
- T1 sequence (P07766 23-126, chain 1 of 2): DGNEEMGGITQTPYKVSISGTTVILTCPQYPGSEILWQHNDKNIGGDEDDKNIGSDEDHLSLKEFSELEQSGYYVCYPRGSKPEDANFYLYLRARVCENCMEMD
- T1 sequence (P04234 22-105, chain 2 of 2): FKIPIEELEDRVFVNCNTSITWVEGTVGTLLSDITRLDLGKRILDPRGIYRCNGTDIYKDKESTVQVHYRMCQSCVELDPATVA
- test-details: BLI, antibody on sensor
experimental-readout: kon (M⁻¹ s⁻¹)

>  <binder>
hzsp34.44 (antibody, human IgG1, kappa, L234A L235A, V domains shown, IgG1 L234A L235A, kappa) VH: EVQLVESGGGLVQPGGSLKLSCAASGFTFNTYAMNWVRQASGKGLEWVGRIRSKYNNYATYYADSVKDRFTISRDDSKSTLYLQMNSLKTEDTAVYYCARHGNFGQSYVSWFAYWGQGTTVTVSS VL: EIVMTQSPATLSVSPGERATLSCRSSTGAVTTSNYANWVQQKPGQAPRGLIGGTNKRAPGVPARFSGSGSGDEFTLTISSLQSEDFAVYYCALWYSNLWVFGQGTKLTVLR

>  <recorded-result>
353000

$$$$
>  <binder>
hzsp34.39 (antibody, human IgG1, kappa, L234A L235A, V domains shown, IgG1 L234A L235A, kappa) VH: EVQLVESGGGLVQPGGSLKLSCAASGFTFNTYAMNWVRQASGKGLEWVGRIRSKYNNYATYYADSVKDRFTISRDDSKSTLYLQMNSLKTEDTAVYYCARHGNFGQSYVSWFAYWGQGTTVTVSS VL: EIVMTQSPATLSVSPGERATLSCRSSTGAVTTSNYANWVQQKPGQAPRGLIGGTNKRAPGVPARFSGSGSGTEFTLTISSLQSEDFAVYYCALWYSNLWVFGQGTKLTVLR

>  <recorded-result>
451000

$$$$
>  <binder>
hzsp34.25 (antibody, human IgG1, lambda, L234A L235A, V domains shown, IgG1 L234A L235A, lambda) VH: EVQLVESGGGLVQPGGSLKLSCAASGFTFNTYAMNWVRQASGKGLEWVARIRSKYNNYATYYADSVKDRFTISRDDSKSTLYLQMNSLKTEDTAVYYCARHGNFGQSYVSWFAYWGQGTTVTVSS VL: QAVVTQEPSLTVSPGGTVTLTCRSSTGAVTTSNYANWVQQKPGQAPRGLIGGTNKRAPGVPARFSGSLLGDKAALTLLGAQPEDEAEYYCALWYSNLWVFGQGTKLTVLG

>  <recorded-result>
2.35e+06

$$$$
>  <binder>
hzsp34.20 (antibody, human IgG1, lambda, L234A L235A, V domains shown, IgG1 L234A L235A, lambda) VH: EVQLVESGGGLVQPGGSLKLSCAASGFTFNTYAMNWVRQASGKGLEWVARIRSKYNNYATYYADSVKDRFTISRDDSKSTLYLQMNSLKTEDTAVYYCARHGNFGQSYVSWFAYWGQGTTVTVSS VL: QAVVTQEPSLTVSPGGTVTLTCRSSTGAVTTSNYANWVQQKPGQAPRGLIGGTNKRAPGVPARFSGSLLGGKAALTLLGAQPEDEAEYYCALWYSNLWVFGQGTKLTVLG

>  <recorded-result>
3.25e+06

$$$$
>  <binder>
hzsp34.19 (antibody, human IgG1, lambda, L234A L235A, V domains shown, IgG1 L234A L235A, lambda) VH: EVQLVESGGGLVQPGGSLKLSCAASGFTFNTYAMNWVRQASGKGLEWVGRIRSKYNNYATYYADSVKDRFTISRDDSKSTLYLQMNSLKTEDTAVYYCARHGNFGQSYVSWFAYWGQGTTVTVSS VL: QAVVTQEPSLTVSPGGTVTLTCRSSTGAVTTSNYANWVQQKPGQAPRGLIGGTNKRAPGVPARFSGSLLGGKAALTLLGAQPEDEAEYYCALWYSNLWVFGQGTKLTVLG

>  <recorded-result>
3.8e+06

$$$$
>  <binder>
sp34 (antibody, human IgG1, lambda, L234A L235A, V domains shown, mouse variable regions on human IgG1 L234A L235A and lambda constant regions; also called chimeric antibody sp34; mouse sp34) VH: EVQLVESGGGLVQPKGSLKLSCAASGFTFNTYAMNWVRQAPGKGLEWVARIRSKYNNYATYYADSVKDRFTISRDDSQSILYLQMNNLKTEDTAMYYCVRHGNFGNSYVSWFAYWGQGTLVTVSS VL: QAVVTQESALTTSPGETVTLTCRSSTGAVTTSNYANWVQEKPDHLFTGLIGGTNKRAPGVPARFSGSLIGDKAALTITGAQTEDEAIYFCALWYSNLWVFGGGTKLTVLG

>  <recorded-result>
2.04e+06

$$$$
>  <binder>
hzsp34.14 (antibody, human IgG1, lambda, L234A L235A, V domains shown, IgG1 L234A L235A, lambda) VH: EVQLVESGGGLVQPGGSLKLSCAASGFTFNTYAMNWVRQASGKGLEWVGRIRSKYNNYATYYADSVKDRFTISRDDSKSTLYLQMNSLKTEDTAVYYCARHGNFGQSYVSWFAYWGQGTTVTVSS VL: QAVVTQEPSLTVSPGGTVTLTCRSSTGAVTTSNYANWVQQKPGQAPRTLIGGTNKRAPGVPARFSGSLLGGKAALTLLGAQPEDEAEYYCALWYSNLWVFGQGTKLTVLG

>  <recorded-result>
661000

$$$$
>  <binder>
hzsp34.45 (antibody, human IgG1, kappa, L234A L235A, V domains shown, IgG1 L234A L235A, kappa) VH: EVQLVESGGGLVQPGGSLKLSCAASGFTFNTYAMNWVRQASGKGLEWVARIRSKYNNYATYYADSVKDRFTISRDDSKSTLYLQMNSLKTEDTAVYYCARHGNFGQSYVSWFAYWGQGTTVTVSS VL: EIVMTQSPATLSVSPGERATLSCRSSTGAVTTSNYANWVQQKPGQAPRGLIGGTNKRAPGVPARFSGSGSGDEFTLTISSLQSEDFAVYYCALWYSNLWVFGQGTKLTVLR

>  <recorded-result>
353000

$$$$
>  <binder>
hzsp34.17 (antibody, human IgG1, lambda, L234A L235A, V domains shown, IgG1 L234A L235A, lambda) VH: EVQLVESGGGLVQPGGSLKLSCAASGFTFNTYAMNWVRQASGKGLEWVGRIRSKYNNYATYYADSVKDRFTISRDDSKNTLYLQMNSLKTEDTAVYYCARHGNFGNSYVSWFAYWGQGTTVTVSS VL: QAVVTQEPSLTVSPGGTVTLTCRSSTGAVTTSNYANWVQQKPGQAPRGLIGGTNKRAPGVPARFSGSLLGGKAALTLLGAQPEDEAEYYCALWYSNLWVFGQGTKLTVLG

>  <recorded-result>
4.04e+06

$$$$
>  <binder>
hzsp34.37 (antibody, human IgG1, kappa, L234A L235A, V domains shown, IgG1 L234A L235A, kappa) VH: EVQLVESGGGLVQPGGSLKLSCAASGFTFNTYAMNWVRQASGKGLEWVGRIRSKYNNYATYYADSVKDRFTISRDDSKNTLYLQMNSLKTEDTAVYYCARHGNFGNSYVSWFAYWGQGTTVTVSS VL: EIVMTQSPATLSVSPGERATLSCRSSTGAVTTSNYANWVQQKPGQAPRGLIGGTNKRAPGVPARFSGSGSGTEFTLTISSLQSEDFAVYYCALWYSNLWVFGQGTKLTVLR

>  <recorded-result>
436000

$$$$
